The reported numbers originate from patent US11884661B2.

For each of the compounds below, state its IC50.
# target.desc: human αVβ8 (Homo sapiens, UniProt P06756+P26012)
# Sequence (P06756 31-992 limits assumed): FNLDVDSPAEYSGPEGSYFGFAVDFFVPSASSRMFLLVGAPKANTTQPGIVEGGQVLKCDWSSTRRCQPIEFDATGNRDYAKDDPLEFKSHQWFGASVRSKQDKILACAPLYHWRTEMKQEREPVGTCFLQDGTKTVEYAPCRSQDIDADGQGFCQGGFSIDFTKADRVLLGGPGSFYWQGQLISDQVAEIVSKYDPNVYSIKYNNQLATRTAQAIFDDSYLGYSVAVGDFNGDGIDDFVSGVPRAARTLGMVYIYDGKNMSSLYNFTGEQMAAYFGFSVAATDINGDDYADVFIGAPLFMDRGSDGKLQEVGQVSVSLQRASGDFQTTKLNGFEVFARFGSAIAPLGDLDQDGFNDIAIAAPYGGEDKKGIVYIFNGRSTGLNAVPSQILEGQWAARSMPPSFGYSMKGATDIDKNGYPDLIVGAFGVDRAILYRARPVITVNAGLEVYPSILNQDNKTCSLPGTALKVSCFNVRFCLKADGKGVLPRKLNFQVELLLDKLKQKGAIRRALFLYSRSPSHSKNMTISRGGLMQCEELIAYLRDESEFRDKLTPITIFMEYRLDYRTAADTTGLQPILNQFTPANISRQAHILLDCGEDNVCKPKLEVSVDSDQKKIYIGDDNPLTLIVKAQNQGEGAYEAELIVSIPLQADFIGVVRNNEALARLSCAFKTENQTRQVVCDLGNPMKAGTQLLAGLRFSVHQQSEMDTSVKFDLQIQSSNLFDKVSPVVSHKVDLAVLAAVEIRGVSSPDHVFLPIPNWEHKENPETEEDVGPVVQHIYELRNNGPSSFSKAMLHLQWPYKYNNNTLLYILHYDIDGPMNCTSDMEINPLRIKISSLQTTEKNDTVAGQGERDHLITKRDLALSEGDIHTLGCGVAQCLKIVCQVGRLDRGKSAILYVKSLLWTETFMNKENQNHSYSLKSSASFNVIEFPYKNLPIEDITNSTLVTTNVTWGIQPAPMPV
# Sequence (P26012 43-684 limits assumed): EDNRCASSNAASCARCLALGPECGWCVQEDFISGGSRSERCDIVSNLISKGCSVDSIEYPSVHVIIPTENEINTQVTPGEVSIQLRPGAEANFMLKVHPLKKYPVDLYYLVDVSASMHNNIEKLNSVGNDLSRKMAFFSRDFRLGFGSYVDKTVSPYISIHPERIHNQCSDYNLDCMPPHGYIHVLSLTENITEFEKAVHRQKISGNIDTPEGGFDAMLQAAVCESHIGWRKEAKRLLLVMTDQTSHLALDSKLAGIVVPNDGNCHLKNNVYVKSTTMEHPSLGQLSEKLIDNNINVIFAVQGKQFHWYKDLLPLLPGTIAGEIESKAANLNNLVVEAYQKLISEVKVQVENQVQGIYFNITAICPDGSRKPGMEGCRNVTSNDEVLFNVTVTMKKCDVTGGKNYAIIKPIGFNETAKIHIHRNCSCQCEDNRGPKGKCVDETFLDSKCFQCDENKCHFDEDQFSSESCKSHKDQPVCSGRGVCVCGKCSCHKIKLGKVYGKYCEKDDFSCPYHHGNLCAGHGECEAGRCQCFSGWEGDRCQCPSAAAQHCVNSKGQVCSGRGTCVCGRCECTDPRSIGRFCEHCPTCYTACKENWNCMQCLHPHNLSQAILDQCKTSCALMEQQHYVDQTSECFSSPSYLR
# assay.protocol: human αVβ8 HTRF binding assay
Where a name gives a salt, the structure may show the parent alone.
Numbers only, in nM.

[
  {
    "compound": "COc1ccc(C(CC(=O)O)c2nc(CCCCc3ccc4c(n3)NCCC4)cs2)cc1F (single isomer, unassigned)",
    "unit.of.measurement": "nM",
    "reading": 870
  },
  {
    "compound": "O=C(O)CC(c1ccc2c(c1)CCO2)n1ccc(CCCc2ccc3c(n2)NCCC3)n1 (racemic)",
    "unit.of.measurement": "nM",
    "reading": 2010
  },
  {
    "compound": "Cn1cc([C@H](CC(=O)O)n2ccc(CCCc3ccc4c(n3)NCCC4)n2)ccc1=O [Example 45, ditrifluoroacetic acid salt]",
    "unit.of.measurement": "nM",
    "reading": 3020
  },
  {
    "compound": "COc1ccc(C(CC(=O)O)c2nc(CCCCc3ccc4c(n3)NCCC4)cs2)cn1 (single isomer, unassigned)",
    "unit.of.measurement": "nM",
    "reading": 510
  },
  {
    "compound": "COc1cncc(C(CC(=O)O)n2ccc(CCCc3ccc4c(n3)NCCC4)n2)c1 (single isomer, unassigned)",
    "unit.of.measurement": "nM",
    "reading": 110
  }
]

Value sought for every listed compound: IC50.
1. COc1ccc([C@H](CC(=O)O)N2CCC(CCCc3ccc4c(n3)NCCC4)C2)cn1 (stereo partly shown)
2. COc1ccc(C(CC(=O)O)c2nc(CCCc3ccc4c(n3)NCCC4)cs2)cn1 (single isomer, unassigned)

## Result
1. 180
2. 330

###

# target.desc: human αVβ6 (Homo sapiens, UniProt P06756+P18564)
# Sequence (P06756 31-992 limits assumed): as the sequence (P06756 31-992 limits assumed) above
# Sequence (P18564 22-707 limits assumed): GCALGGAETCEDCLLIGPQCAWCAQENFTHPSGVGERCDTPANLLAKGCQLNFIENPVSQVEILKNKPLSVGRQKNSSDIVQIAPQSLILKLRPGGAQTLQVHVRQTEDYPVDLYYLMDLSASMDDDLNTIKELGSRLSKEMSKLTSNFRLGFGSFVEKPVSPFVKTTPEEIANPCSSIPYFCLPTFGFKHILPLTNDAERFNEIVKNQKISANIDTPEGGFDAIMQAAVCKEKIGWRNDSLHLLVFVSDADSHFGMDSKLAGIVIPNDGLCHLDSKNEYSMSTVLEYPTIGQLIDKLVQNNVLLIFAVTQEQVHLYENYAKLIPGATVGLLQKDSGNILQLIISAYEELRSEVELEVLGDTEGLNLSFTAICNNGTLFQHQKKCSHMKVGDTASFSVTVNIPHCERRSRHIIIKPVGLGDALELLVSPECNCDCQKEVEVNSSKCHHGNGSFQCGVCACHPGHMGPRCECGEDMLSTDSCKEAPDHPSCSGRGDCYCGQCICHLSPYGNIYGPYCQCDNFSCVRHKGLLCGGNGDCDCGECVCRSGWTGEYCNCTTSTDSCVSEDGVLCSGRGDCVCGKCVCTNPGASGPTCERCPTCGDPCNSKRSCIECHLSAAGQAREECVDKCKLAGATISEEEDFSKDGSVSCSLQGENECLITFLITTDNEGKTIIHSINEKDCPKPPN
# assay.protocol: human αVβ6 HTRF binding assay
# experimental.parameters: recombinant human αVβ6 integrin, FITC-conjugated fibronectin
experimental.readout: IC50 (nM)
Give bare numbers, in nM.

[
  {
    "molecule": "COc1ncc(C(CC(=O)O)n2nccc2CCC[C@@H]2CCc3cccnc3N2)cn1 (mixture of isomers)",
    "target.desc": "human αVβ6 (Homo sapiens, UniProt P06756+P18564)",
    "reading": 1030
  },
  {
    "molecule": "CCOc1ncc(C(CC(=O)O)c2nc(CCCCc3ccc4c(n3)NCCC4)cs2)cn1 (single isomer, unassigned) [Example 129]",
    "target.desc": "human αVβ6 (Homo sapiens, UniProt P06756+P18564)",
    "reading": 28
  },
  {
    "molecule": "Cc1ncc([C@H](CC(=O)O)n2ccc(CCC[C@@H]3CCc4cccnc4N3)n2)cn1",
    "target.desc": "human αVβ6 (Homo sapiens, UniProt P06756+P18564)",
    "reading": 170
  }
]

// next item, IC50 requested
## Task Recorded IC50 for COc1cncc(C(CC(=O)O)n2ccc(CCCc3ccc4c(n3)NCCC4)n2)c1 (single isomer, unassigned) [Example 64] with human αVβ6 (Homo sapiens, UniProt P06756+P18564), please?
## Result 19

###

For each of the molecules below, state its IC50.
# target.desc: human αVβ5 (Homo sapiens, UniProt P06756+P18084)
# Sequence (P18084 24-719 limits assumed, one chain of several): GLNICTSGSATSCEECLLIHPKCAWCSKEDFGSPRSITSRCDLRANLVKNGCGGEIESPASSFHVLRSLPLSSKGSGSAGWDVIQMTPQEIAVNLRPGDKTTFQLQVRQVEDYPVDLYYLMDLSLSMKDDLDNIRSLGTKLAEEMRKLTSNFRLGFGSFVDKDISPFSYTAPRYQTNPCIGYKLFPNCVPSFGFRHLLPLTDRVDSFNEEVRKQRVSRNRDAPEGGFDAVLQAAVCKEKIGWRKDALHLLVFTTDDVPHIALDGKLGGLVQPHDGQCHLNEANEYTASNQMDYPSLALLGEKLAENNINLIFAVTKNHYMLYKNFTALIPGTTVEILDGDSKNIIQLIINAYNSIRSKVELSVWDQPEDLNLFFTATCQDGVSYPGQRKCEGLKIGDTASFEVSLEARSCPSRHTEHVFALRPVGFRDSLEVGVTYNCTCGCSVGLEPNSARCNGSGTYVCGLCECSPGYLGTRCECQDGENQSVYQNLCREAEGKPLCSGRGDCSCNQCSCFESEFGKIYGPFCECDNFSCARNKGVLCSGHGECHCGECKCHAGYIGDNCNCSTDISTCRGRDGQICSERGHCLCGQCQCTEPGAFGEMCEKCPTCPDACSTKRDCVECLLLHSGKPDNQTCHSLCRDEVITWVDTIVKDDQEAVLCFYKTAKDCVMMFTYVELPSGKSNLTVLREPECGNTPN
# assay.protocol: human αVβ5 HTRF binding assay
Give bare numbers, in nM.

Some solved cases for reference:
[
  {
    "molecule": "COc1ccc(C(CC(=O)O)n2ccc(CCCCc3ccc4c(n3)NCCC4)n2)cn1 (racemic)",
    "target.desc": "human αVβ5 (Homo sapiens, UniProt P06756+P18084)",
    "IC50 / nM": 1.5
  },
  {
    "molecule": "COc1cncc(C(CC(=O)O)n2nccc2CCCc2ccc3c(n2)NCCC3)c1 (single isomer, unassigned)",
    "target.desc": "human αVβ5 (Homo sapiens, UniProt P06756+P18084)",
    "IC50 / nM": 0.87
  },
  {
    "molecule": "Cc1ncc([C@H](CC(=O)O)n2ccc(CCCc3ccc4c(n3)NCCC4)n2)cn1",
    "target.desc": "human αVβ5 (Homo sapiens, UniProt P06756+P18084)",
    "IC50 / nM": 0.99
  },
  {
    "molecule": "CCOC(=O)C[C@@H](c1ccc(OC)nc1)n1ccc(CCCc2ccc3c(n2)NCCC3)n1",
    "target.desc": "human αVβ5 (Homo sapiens, UniProt P06756+P18084)",
    "IC50 / nM": 270
  }
]

// next item, IC50 requested
## Task What measured IC50 goes with COc1ccc(C(CC(=O)O)c2nc(CCCCc3ccc4c(n3)NCCC4)cs2)cc1F (single isomer, unassigned) ?
## Result 1.1
